B1: CPEB3 Ribozyme (parent)
chain: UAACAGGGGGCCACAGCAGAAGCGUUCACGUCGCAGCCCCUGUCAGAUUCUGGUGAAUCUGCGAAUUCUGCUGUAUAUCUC

variants of: B1; experiment: self-cleavage, relative activity (ratio to wild type); higher = more cleavage; in vitro, sequencing
metric name: self-cleavage

{"variant code": "G6U G52A", "self-cleavage": 0.47}
{"variant code": "C44U U76C", "self-cleavage": 0.25}
{"variant code": "C11U C50U", "self-cleavage": 0.4}
{"variant code": "C68A U72C", "self-cleavage": 0.2}

// returns reported self-cleavage for input G46C U76C
0.5

// returns reported self-cleavage for input A28U U78A
0.51

// returns reported self-cleavage for input A21G G52A
0.72

// returns reported self-cleavage for input G22C G52C
0.2

// returns reported self-cleavage for input U25C C34U
0.25

// returns reported self-cleavage for input A21C U43C
0.19

// returns reported self-cleavage for input A28C U74A
0.9

// returns reported self-cleavage for input U41C U74G
1.21

// returns reported self-cleavage for input G7A C40U
0.3

// returns reported self-cleavage for input C14G G53A
1.19

// returns reported self-cleavage for input U1A G24A
0.25

// returns reported self-cleavage for input U51C U58C
0.37

// returns reported self-cleavage for input A13C C32A
0.29

// returns reported self-cleavage for input G8A G30A
0.4

// returns reported self-cleavage for input U25C C38A
0.18

// returns reported self-cleavage for input C23U C39A
0.19

// returns reported self-cleavage for input C39A A56G
0.26

// returns reported self-cleavage for input A13C G30U
0.12

// returns reported self-cleavage for input A5G U69A
0.49

// returns reported self-cleavage for input A5U A15C
1.18

// returns reported self-cleavage for input A45U G73U
1.2

// returns reported self-cleavage for input A15C A64G
0.62

meta.source: the RNAGym collection of RNA variant scans (doi:10.1093/nar/gkz1192)
